# tested_target: UniProt Q14833
# Sequence (Q14833 33-912): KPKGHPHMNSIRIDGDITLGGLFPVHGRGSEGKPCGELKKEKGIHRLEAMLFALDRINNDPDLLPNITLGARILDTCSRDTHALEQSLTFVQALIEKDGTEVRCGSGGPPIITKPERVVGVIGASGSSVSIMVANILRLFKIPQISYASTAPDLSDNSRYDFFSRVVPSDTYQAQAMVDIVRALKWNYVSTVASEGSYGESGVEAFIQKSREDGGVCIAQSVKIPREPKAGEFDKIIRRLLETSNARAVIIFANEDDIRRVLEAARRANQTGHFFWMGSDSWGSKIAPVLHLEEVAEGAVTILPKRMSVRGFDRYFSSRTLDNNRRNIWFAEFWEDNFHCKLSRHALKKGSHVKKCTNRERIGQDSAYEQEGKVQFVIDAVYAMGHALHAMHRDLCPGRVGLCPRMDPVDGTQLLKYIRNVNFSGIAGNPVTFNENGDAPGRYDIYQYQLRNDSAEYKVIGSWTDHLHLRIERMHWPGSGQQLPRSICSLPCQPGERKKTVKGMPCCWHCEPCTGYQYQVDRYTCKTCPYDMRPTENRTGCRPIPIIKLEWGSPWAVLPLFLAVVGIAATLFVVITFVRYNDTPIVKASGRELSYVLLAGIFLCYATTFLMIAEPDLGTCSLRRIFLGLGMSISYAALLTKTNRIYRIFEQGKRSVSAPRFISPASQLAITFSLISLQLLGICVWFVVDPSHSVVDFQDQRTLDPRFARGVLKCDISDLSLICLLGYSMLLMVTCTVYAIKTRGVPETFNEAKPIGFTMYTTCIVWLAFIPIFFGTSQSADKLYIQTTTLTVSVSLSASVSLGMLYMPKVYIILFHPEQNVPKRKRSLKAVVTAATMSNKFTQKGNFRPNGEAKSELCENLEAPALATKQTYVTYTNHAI
# protocol: Assay A: in vitro testing of mGluR4 potency (glutamate-induced cAMP lowering, HTRF cAMP)
# condition_parameters: HEK293 cells overexpressing human mGluR4; 10 uM L-glutamic acid, 1 uM forskolin; compounds of the present invention
pIC50: −log10 of the molar value.
readout_kind: pIC50

Worked examples follow.
>  <compound>
Cc1cnc(C(=O)N[C@H](c2nc3cc(C)c(F)cc3n2CC(F)F)C2CC2)cn1

>  <experimental_value>
8.52

$$$$
>  <compound>
CCn1c([C@@H](NC(=O)c2cnc(C)cn2)C2CC2)nc2cc(Cl)ccc21

>  <experimental_value>
8.52

$$$$
>  <compound>
COCCn1c([C@@H](NC(=O)c2cnc(C(F)F)cn2)[C@H]2CCOC2)nc2cc(F)ccc21

>  <experimental_value>
7.68

$$$$
>  <compound>
CCn1c([C@@H](NC(=O)c2cnc(C)cn2)[C@H]2CCOC2)nc2cc(OC(F)(F)F)ccc21 (single isomer, unassigned)

>  <experimental_value>
7.92

$$$$

(I) CCn1c([C@@H](NC(=O)c2cnc(C)cn2)[C@H]2CCOC2)nc2cc(F)ccc21
(II) COCCn1c([C@@H](NC(=O)c2cnc(C(F)F)cn2)C2CC2)nc2cc(Cl)ccc21
(III) CO[C@H](C)[C@H](NC(=O)c1cnc(C)cn1)c1nc2cc(Cl)ccc2n1C
(IV) COCCn1c([C@@H](NC(=O)c2cnc(C)cn2)C2CC2)nc2c(C)c(Br)ccc21
(V) Cc1cnc(C(=O)N[C@H](c2nc3c(C)c(C#N)ccc3n2CC(F)F)C2CC2)cn1
IN: Could you please sort these 5 entries by pIC50 from high to low? Labels, requested order.
OUT: IV, II, V, III, I
(IV: 9.00, II: 8.52, V: 8.30, III: 7.96, I: 7.39)

(1) CCn1c([C@@H](NC(=O)c2cnc(C)cn2)[C@]2(O)CCOC2)nc2cc(C(F)(F)F)ccc21
(2) Cc1cnc(C(=O)N[C@@H](CC2CC2)c2nc3cc(F)c(F)cc3n2CCOC(F)F)cn1
IN: Lab note: check whether 1 or 2 shows the higher recorded pIC50. Your choice should be expressed through its label.
OUT: 2
(2: 8.10, 1: 7.41)
